Test system: MDA-MB-435
Test: NCI tumour cell line growth inhibition, 48 h
Activity calls are given as the source filed them. Rule as the data show it: active = GI50 up to about 1.1 µM and inactive = higher.
Outcomes: T = active, F = inactive

INSERT INTO assay_data (molecule, label_class) VALUES
  ('NNC(=O)COc1nc(-c2cccs2)nc2ccc(I)cc12', 'F'),
  ('O=c1sc2c(s1)-c1sc(=O)sc1SS2', 'F'),
  ('CCOC(=O)C(Cc1ccc(N(CCCl)CCCl)cc1)NC(=O)C(Cc1ccccc1)NC=O (configuration not stated)', 'T'),
  ('CCOP(=O)(OCC)C(Nc1ccc(F)cc1)c1ccccc1 (configuration not stated)', 'F'),
  ('O=c1[nH]c(=O)n(C/C=C/CO)nc1Br', 'F'),
  ('COc1ccc([N+](=O)[O-])cc1[I+]c1cc([N+](=O)[O-])ccc1OC', 'F'),
  ('CC1(C)CC(=O)C2=C(C1)NC1=C(C(=O)CC(C)(C)C1)C2c1ccc([N+](=O)[O-])cc1', 'F'),
  ('O=C(Cn1c2ccc(Br)cc2c2nc3ccccc3nc21)NNC(=S)NC1CCCCC1', 'F'),
  ('O=S(=O)(O)C(c1ccccc1)C(O)c1ccccc1 (configuration not stated)', 'F'),
  ('O=C(Nc1ccc(F)cc1)c1cc2ccc(O)cc2o/c1=N\c1ccccc1F', 'F'),
  ('COC(=O)C(CCC(=O)CCl)N1C(=O)c2ccccc2C1=O (configuration not stated)', 'F'),
  ('CC(C)(CCCCC(C)(C)NC1=NCCO1)NC1=NCCO1', 'F'),
  ('CCOc1cc(NC(C)=O)ccc1C(=O)NN1C(=O)/C(=C/c2ccc(Cl)cc2)N=C1c1ccccc1', 'F'),
  ('CCOC(=O)CN1C(=O)c2cc([N+](=O)[O-])cc3cc([N+](=O)[O-])cc(c23)C1=O', 'F'),
  ('Cc1ncc([N+](=O)[O-])n1CCNC(=O)CCn1ccnc1[N+](=O)[O-]', 'F'),
  ('CC1(CCOCc2ccccc2)NC(=O)NC1=O (configuration not stated)', 'F'),
  ('CC(NC(=O)c1c(O)[nH]c(=S)[nH]c1=O)c1ccc([N+](=O)[O-])cc1 (configuration not stated)', 'F');
